# Tested on: albumin (secreted, cellular toxicity marker)
# Assay Procedure: Albumin (in vitro cellular tox marker), multiplex assay, PHH
# Type: cell-based
# Condition Info: human, HepG2.2.15-derived HBV GT D, MOI 125, read-out: In vitro tox albumin IC50 (μM) Median
Parameter Measured: IC50 at 7 days (µM)
# output: bare number, implied unit µM

Lab book: IC50 at 7 days of O=C(NC(CO)CO)c1c[nH]c2ncc(C3CC3)nc12 noted as 20.2

====

# Tested on: HBeAg
# Assay Procedure: HBeAg, multiplex assay, HBV-infected PHH
# Format: cell-based
# Condition Info: Hepatitis B virus, read-out: HBeAg IC50 (μM) Median, PHH, HepG2.2.15-derived HBV GT D, MOI 40
Parameter Measured: IC50 (µM)
# output: bare number, implied unit µM

Lab book: IC50 of O=C(NC(CO)CO)c1c[nH]c2ncc(C3CC3)nc12 [compound 7] noted as 15.3

====

# Test system: HBsAg
# Assay Procedure: HBsAg, HBV-infected HepaRG
# Type: cell-based
# Condition Info: Hepatitis B virus, read-out: HBsAg IC50 (μM) Median, HepaRG, patient-derived HBV GT D, MOI 125
Parameter Measured: IC50 (µM)
# output: bare number, implied unit µM

Lab book: IC50 of O=C(NC(CO)CO)c1c[nH]c2ncc(C3CC3)nc12 noted as 0.88

====

# Test system: HBsAg
# Assay Procedure: HBsAg, multiplex assay, HBV-infected PHH
# Type: cell-based
# Condition Info: Hepatitis B virus, read-out: HBsAg IC50s, PHH, patient-derived HBV GT A-D, range stated in text for HBsAg & HBeAg
pIC50: −log10 of the molar value.
Parameter Measured: pIC50

Form field pIC50 for item O=C(NC(CO)CO)c1c[nH]c2ncc(C3CC3)nc12 on HBsAg: 6.35 to 6.62

====

# Test system: albumin (secreted, cellular toxicity marker)
# Assay Procedure: Albumin (in vitro cellular tox marker), multiplex assay, PHH
# Type: cell-based
# Condition Info: human, primary human hepatocytes (PXB-PHH) infected with HBV, patient-derived HBV GT D, MOI 125, read-out: In vitro tox albumin IC50 (μM) Median
Parameter Measured: IC50 at 7 days (µM)
# output: bare number, implied unit µM

Lab book: IC50 at 7 days of O=C(NC(CO)CO)c1c[nH]c2ncc(C3CC3)nc12 [compound 7] noted as 20.5

====

# System: HBV DNA
# Assay Procedure: HBV DNA in culture medium of HBV-infected PHH
# Assay type: cell-based
# Condition Info: Hepatitis B virus, 240 h, read-out: HBV DNA IC50 (μM) Median, PHH, patient-derived HBV GT D, MOI 40, day 10 pi (Table 5)
Parameter Measured: IC50 (µM)
# output: bare number, implied unit µM

Lab book: IC50 of O=C(NC(CO)CO)c1c[nH]c2ncc(C3CC3)nc12 noted as 0.023

====

# System: HBsAg
# Assay Procedure: HBsAg, multiplex assay, HBV-infected PHH
# Type: cell-based
# Condition Info: Hepatitis B virus, read-out: HBsAg IC50 (μM) Median, PHH, patient-derived HBV GT D, MOI 40 (Table 6)
Parameter Measured: IC50 (µM)
# output: bare number, implied unit µM

Lab book: IC50 of O=C(NC(CO)CO)c1c[nH]c2ncc(C3CC3)nc12 noted as 0.44

====

# Tested on: albumin (secreted, cellular toxicity marker)
# Assay Procedure: Albumin (in vitro cellular tox marker), multiplex assay, PHH
# Format: cell-based
# Condition Info: human, primary human hepatocytes (PXB-PHH) infected with HBV, patient-derived HBV GT D, MOI 40 (Table 6), read-out: In vitro tox albumin IC50 (μM) Median
# Description: Fresh primary human hepatocytes (PXB-PHH) harvested from humanized mice (uPA/SCID mice)—herein called PHH—were obtained from PhoenixBio Co., Ltd (Japan). […] A custom, Luminex-based multiplex assay that simultaneously measured HBeAg, albumin, and HBsAg was developed by Radix BioSolutions (Georgetown, Tex.). […] Samples were read on FlexMAP 3D (Luminex) and analyzed by Genedata software.
Parameter Measured: IC50 at 7 days (µM)
# output: bare number, implied unit µM

Lab book: IC50 at 7 days of O=C(NC(CO)CO)c1c[nH]c2ncc(C3CC3)nc12 noted as 23.7

====

# Test system: albumin (secreted, cellular toxicity marker)
# Assay Procedure: Albumin (in vitro cellular tox marker), multiplex assay, PHH
# Assay type: cell-based
# Condition Info: human, primary human hepatocytes (PXB-PHH) infected with HBV, patient-derived HBV GT A, MOI 40, day 10 pi, read-out: In vitro tox albumin IC50 (μM) Median
# Text: Fresh primary human hepatocytes (PXB-PHH) harvested from humanized mice (uPA/SCID mice)—herein called PHH—were obtained from PhoenixBio Co., Ltd (Japan). […] A custom, Luminex-based multiplex assay that simultaneously measured HBeAg, albumin, and HBsAg was developed by Radix BioSolutions (Georgetown, Tex.). […] Samples were read on FlexMAP 3D (Luminex) and analyzed by Genedata software.
Parameter Measured: IC50 at 7 days (µM)
# output: bare number, implied unit µM

Form field IC50 at 7 days for item O=C(NC(CO)CO)c1c[nH]c2ncc(C3CC3)nc12 [compound 7] on albumin (secreted, cellular toxicity marker): 20.3

====

# System: albumin (secreted, cellular toxicity marker)
# Assay Procedure: Albumin (in vitro cellular tox marker), multiplex assay, PHH
# Type: cell-based
# Condition Info: human, primary human hepatocytes (PXB-PHH) infected with HBV, patient-derived HBV (GT D), read-out: In vitro tox albumin IC50 (μM) Median
In this section we review reported IC50 at 7 days values for a set of compounds.
# output: bare number, implied unit µM

Field: example entries. Status: answers known.
[
  {
    "Compound": "CC[C@@H](CO)NC(=O)c1c[nH]c2ncc(C3CC3)nc12",
    "Tested Target": "albumin (secreted, cellular toxicity marker)",
    "Val": 48
  },
  {
    "Compound": "O=C(NC1(CO)CCCC1)c1c[nH]c2ncc(C3CC3)nc12",
    "Tested Target": "albumin (secreted, cellular toxicity marker)",
    "Val": 24.2
  },
  {
    "Compound": "CC(C)(O)C(CCO)NC(=O)c1c[nH]c2ncc(C3CC3)nc12 (stereo not drawn)",
    "Tested Target": "albumin (secreted, cellular toxicity marker)",
    "Val": 33.4
  }
]

Form field IC50 at 7 days for item CC(C)(O)C(C)(C)NC(=O)c1c[nH]c2ncc(C3CC3)nc12 on albumin (secreted, cellular toxicity marker): 21.3

Form field IC50 at 7 days for item CC(C)(CO)NC(=O)c1c[nH]c2ncc(C3CC3)nc12 on albumin (secreted, cellular toxicity marker): 18.7

Form field IC50 at 7 days for item C[C@@H](CO)NC(=O)c1c[nH]c2ncc(C3CC3)nc12 on albumin (secreted, cellular toxicity marker): 31.9

Form field IC50 at 7 days for item O=C(NC(CO)CO)c1c[nH]c2ncc(C3CC3)nc12 on albumin (secreted, cellular toxicity marker): 20.9

Form field IC50 at 7 days for item C[C@H](CO)NC(=O)c1c[nH]c2ncc(C3CC3)nc12 on albumin (secreted, cellular toxicity marker): 135

====

# System: HBV DNA
# Assay Procedure: HBV DNA in culture medium of HBV-infected PHH
# Assay type: cell-based
# Condition Info: Hepatitis B virus, read-out: HBV DNA IC50s, PHH, patient-derived HBV GT A-D
Parameter Measured: IC50

Lab book: IC50 of O=C(NC(CO)CO)c1c[nH]c2ncc(C3CC3)nc12 noted as 0.02 to 0.025 µM

====

# Tested on: HBsAg
# Assay Procedure: HBsAg, multiplex assay, HBV-infected PHH
# Assay type: cell-based
# Condition Info: Hepatitis B virus, read-out: HBsAg IC50 (μM) Median, PHH, HepG2.2.15-derived HBV GT D, MOI 40
Parameter Measured: IC50
Quote the value and follow it with the unit of measurement.

Lab book: IC50 of O=C(NC(CO)CO)c1c[nH]c2ncc(C3CC3)nc12 noted as 9.98 µM

====

# Test system: HBsAg
# Assay Procedure: HBsAg, multiplex assay, HBV-infected PHH
# Type: cell-based
# Condition Info: Hepatitis B virus, read-out: HBsAg IC50 (μM) Median, PHH, patient-derived HBV (GT D)
# Source text: Fresh primary human hepatocytes (PXB-PHH) harvested from humanized mice (uPA/SCID mice)—herein called PHH—were obtained from PhoenixBio Co., Ltd (Japan). […] A custom, Luminex-based multiplex assay that simultaneously measured HBeAg, albumin, and HBsAg was developed by Radix BioSolutions (Georgetown, Tex.). […] Samples were read on FlexMAP 3D (Luminex) and analyzed by Genedata software.
In this section we review reported IC50 values for a set of compounds.
# output: bare number, implied unit µM

Field: example entries. Status: answers known.
[
  {
    "Input Smiles": "O=C(NC1(CO)CCCC1)c1c[nH]c2ncc(C3CC3)nc12",
    "Parameter Measured": "IC50",
    "Val": 0.68
  },
  {
    "Input Smiles": "C[C@@H](CO)NC(=O)c1c[nH]c2ncc(C3CC3)nc12",
    "Parameter Measured": "IC50",
    "Val": 1.22
  },
  {
    "Input Smiles": "CC(C)(O)C(C)(C)NC(=O)c1c[nH]c2ncc(C3CC3)nc12",
    "Parameter Measured": "IC50",
    "Val": 0.51
  }
]

Lab book: IC50 of O=C(NC1(CO)CCOCC1)c1c[nH]c2ncc(C3CC3)nc12 noted as 0.75

// provenance: patent US20230248723A1
